# %Inh per record follows
# System: AXL
# test conditions: concentration: 1 μM,replicates: in singlicate; n = 1;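 further: KINOMEscan kinase panel screen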
measurement kind: %Inh (%)

molecule | measurement kind | value measured
CN1CCN(CCNc2nc3cc(Oc4ccc(NC(=O)Nc5cc(C(F)(F)F)ccc5F)cc4)ccc3[nH]2)CC1.Cl.Cl | %Inh | 82
O=C(Nc1cccc(C(F)(F)F)c1)c1cccc(Oc2ccc3nccn3n2)c1 | %Inh | 31
COC(=O)c1cccc(NC(=O)NC2CCN(c3ccnc(Nc4cc(OC)c(OC)c(OC)c4)n3)C2)c1 (centres unmarked) | %Inh | 0
O=C(Nc1ccc(Oc2ccc3nc(NC(=O)C4CC4)cn3n2)c(F)c1)c1cccn(-c2ccccc2)c1=O | %Inh | 90.4
CSc1nccc(-c2c(-c3ccc(F)cc3)ncn2CCCN2CCOCC2)n1.Cl | %Inh | 0
Cc1ccc2c(-c3ccnc(Nc4ccc(C(F)(F)F)cc4)n3)cnn2n1 | %Inh | 0
Cn1ccc2ncnc(Oc3ccc(NC(=O)Nc4cnn(C(C)(C)C)c4)c(Cl)c3)c21 | %Inh | 76
COc1cc(Nc2nccc(N3CCC(NC(=O)c4cccc(C#N)c4)C3)n2)cc(OC)c1OC (centres unmarked) | %Inh | 22

###

# System: p38-alpha
# Construct: gene MAPK14
# test conditions: concentration: 1 μM,replicates: in singlicate; n = 1
# %Inh per record follows

compound | experimental system | %Inh (%)
NC(=O)Nc1sc(-c2ccc(F)cc2)cc1C(N)=O [GW789449] | p38-alpha | 6
CN1CCN(CCCNc2nccc(-c3c(-c4ccc(F)cc4)nn4cc(C(N)=O)ccc34)n2)CC1 [GW622475] | p38-alpha | 99.9
c1ccc(Oc2ccc(Nc3ccnc4ccc(-c5ccccn5)cc34)cc2)cc1 [GW407034] | p38-alpha | 0
O=C(NOCC1CC1)c1cc(Br)c(F)c(F)c1Nc1ccc(I)cc1Cl | p38-alpha | 0
NC(=O)c1ccc(-c2cc3ncnc(SCC(=O)O)c3s2)cc1 | p38-alpha | 0
COC(=O)Nc1nc2cc(Oc3ccc(NC(=O)Nc4cc(C(F)(F)F)ccc4Cl)cc3)ccc2[nH]1.Cl [GW697465] | p38-alpha | 83
Cl.c1ccc(Oc2ccc(Nc3ccnc4cc(-c5ccc(CN6CCNCC6)o5)ccc34)cc2)nc1 [GW567142] | p38-alpha | 12
FC(F)(F)c1cc(Br)cc(Nc2nccc(-c3cnn4ncccc34)n2)c1 [GW810578] | p38-alpha | 0
O=C(Nc1n[nH]c2cc(-c3ccco3)ccc12)C1CC1 [SB-737447] | p38-alpha | 0

###

# %Inh per record follows
# Test system: AMPK-alpha1
# Construct: gene PRKAA1
# test conditions: concentration: 1 μM,replicates: in singlicate; n = 1

compound | %Inh [%]
Cc1ccn2nc(-c3ccc(F)cc3)c(-c3ccncc3)c2c1.Cl [GW457859] | 5
COc1cc2c(Nc3ccc(NC(=O)c4ccccc4)cc3)ncnc2cc1OCCCN1CCOCC1 [GSK301329] | 0
O=C(Nc1ccc(Oc2ccc3nc(NC(=O)C4CC4)cn3n2)c(F)c1)c1cccn(-c2ccccc2)c1=O | 0
Cn1ccc2ncnc(Oc3ccc(NC(=O)Nc4cccc(C(F)(F)F)c4)c(Cl)c3)c21 | 15
Cl.c1ccc(Oc2ccc(Nc3ccnc4cc(-c5ccc(CN6CCNCC6)o5)ccc34)cc2)nc1 [GW567142] | 0
CCN1CCN(CCCC(=O)Nc2n[nH]c3nc(-c4ccc(O)cc4)c(Br)cc23)CC1 [SB-731579] | 0
CCn1c(-c2nonc2N)nc2cncc(CNC3CCNCC3)c21.Cl [SB-747651] | 6
COc1cc(Nc2nccc(N3CCC(NC(=O)c4cccc(C#N)c4)C3)n2)cc(OC)c1OC (centres unmarked) [GSK1379751] | 0
